Ref: PubChem BioAssay (NCI)

Listing of recorded TGI by entry.
Test system: K-562 leukemia
Assay: NCI tumour cell line growth inhibition, 48 h
Where a SMILES comes first, the peptide text is derived from it. The star is where a group is joined. Cbz = O=C(OCc1ccccc1)*
Observable: TGI

>>> result("O=C1C=CC(=CC=C2C=CN(CCCCCCCCCCC(=O)NCCCCCCCCCCCC(=O)O)C=C2)C=C1")
"> 100 µM"
>>> result("CCOC(=O)C(Cc1ccc(O)cc1)Nc1nc(=O)c2c(=O)oc(Cl)cc2o1 (stereo not given)")
"31.6 µM"
>>> result("COc1ccc2nc(-c3ccccc3)c(=O)[nH]c2c1")
"> 100 µM"
>>> result("O=c1[nH]nc(Cc2ccc(Cl)cc2)n1/N=C/c1cccs1")
"> 100 µM"
>>> result("C=C(C)[C@@H]1CC[C@]2(C)[C@H](CC[C@@H]3[C@@H]([C@@](C)(O)CCC=C(C)C)CC[C@]32C)[C@@]1(C)CCC(=O)O")
"90.5 µM"
>>> result("CN1CCCOC(c2ccc(Cl)cc2)O1 (stereo not given)")
"> 100 µM"
>>> result("CNC(C)C(O)c1ccc2oc3cc(=O)c4ccccc4c-3nc2c1 (stereo not given)")
"> 100 µM"
>>> result("Cn1cc(-c2csc(-c3cn(C)c4ccc(F)cc34)n2)c2cnccc21")
"3.78 µM"
>>> result("O=C1/C(=C\\c2cccc(Oc3ccccc3)c2)S(=O)(=O)C(c2ccccc2)N1c1cccc(Cl)c1 (stereo not given)")
"> 100 µM"
>>> result("Nc1nc(SCc2ccccc2Cl)c2[nH]cnc2n1")
"> 100 µM"
>>> result("Cc1n[n+](Cc2ccccc2)c2sc(N)nn12")
"> 100 µM"
>>> result("S=C1NCCN1C(=S)Nc1ccccc1")
"> 100 µM"
>>> result("O=C1c2ccccc2C(=O)N1C/C=N/NS(=O)(=O)c1ccc(Br)cc1")
"> 100 µM"
>>> result("NC(=O)CNc1ccc([As]=[As]c2ccc(NCC(N)=O)cc2)cc1 (stereo not given)")
"> 100 µM"
>>> result("COc1ccc(N2C(=O)C(=O)N(c3ccc(N=Nc4ccccc4)cc3)C2=S)cc1")
"> 100 µM"
>>> result("NC(=S)N/N=C1\\CCCC\\C1=C/c1ccccc1")
"> 100 µM"
>>> result("N#Cc1c(-c2ccco2)cc(-c2ccc(N)cc2)[nH]c1=O")
"> 100 µM"
>>> result("COc1cc2nc(-c3cccs3)nc(Cl)c2cc1OC")
"> 100 µM"
>>> result("C=C1C(=O)OC2C1CC(OC(C)=O)/C(C)=C/CCC1(C)OC21 (stereo not given)")
"> 100 µM"
>>> result("Cc1ccc(CSC(N)=Nc2ccccc2)cc1C")
"61.7 µM"
>>> result("CC(C)(C)c1cc(C(=O)/C=C/c2ccc(C(=O)O)cc2)cc(C(C)(C)C)c1")
"> 100 µM"
>>> result("COc1ccc(-c2nn(-c3cccc(Cl)c3)cc2-c2nc(N)[nH]c(=O)c2C#N)cc1")
"> 100 µM"
>>> result("CC(=O)OC(CCC1(C)OC1COc1ccc(CCNC(=O)C=C(C)C)cc1)C(C)(C)OC(C)=O (stereo not given)")
"> 100 µM"
>>> result("COc1ccc2c(c1)C(C)Cc1c(ncnc1-n1cnc3ccccc31)N2C (stereo not given)")
"> 100 µM"
>>> result("NCCN.O=C([O-])[O-].O=C([O-])[O-].[Co+3].[K+]")
"> 100 µM"
>>> result("CCCn1cnc2c(SCc3ccc(Cl)cc3)nc(N)nc21")
"48.2 µM"
>>> result("NC1(CCNC(=O)c2ccccc2)CCN(C(=O)c2ccccc2)CC1")
"> 100 µM"
>>> result("COc1ccc(CNc2nc(NC3CCCCC3)nc(NC3CCCCC3)n2)cc1")
"> 100 µM"
>>> result("C=C1CCCCCCCCC/C=C/1SCCCSC")
"> 100 µM"
>>> result("COc1ccc(/C=N/n2cnc3c(c2=O)SC(=C(C#N)C#N)N3c2ccccc2)cc1")
"> 100 µM"
>>> result("CCCCC1Cc2cc(O)ccc2-c2nc3cc(O)ccc3n21 (stereo not given) (tested in a mixture with another compound)")
"41.3 µM"
>>> result("C/C=C\\C(CC(=O)NCC(=O)c1c[nH]c2ccccc12)CC(=O)OC (stereo not given)")
"> 100 µM"
>>> result("O=C1c2ccccc2OCC12OC21C=CC(Cl)=CC1 (stereo not given)")
"> 100 µM"
>>> result("O=C(NCCN1CCOCC1)c1ccc(I)cc1")
"> 100 µM"
>>> result("CCOC(=O)CCC(NC(=O)C(Cc1ccccc1)NC(=O)OCc1ccccc1)C(=O)OCC (stereo not drawn) (Cbz-Phe-Glu(OEt)-OEt; configuration not given here)")
"> 100 µM"
